Target chain: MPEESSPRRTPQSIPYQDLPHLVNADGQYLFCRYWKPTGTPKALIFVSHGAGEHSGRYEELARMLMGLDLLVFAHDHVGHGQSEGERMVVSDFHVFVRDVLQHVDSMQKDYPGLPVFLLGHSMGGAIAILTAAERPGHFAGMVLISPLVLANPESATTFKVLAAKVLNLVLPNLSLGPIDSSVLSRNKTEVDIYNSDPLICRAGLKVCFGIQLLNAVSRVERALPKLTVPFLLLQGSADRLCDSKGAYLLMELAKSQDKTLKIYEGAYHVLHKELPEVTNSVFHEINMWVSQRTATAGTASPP
pIC50: −log10 of the molar value.
Below: a set of entries, each annotated with reported pIC50.
readout-type: pIC50

1) O=C1CO[C@H]2CCN(C(=O)N3CC(COC4=C5C=CC=[N+]5[B-](F)(F)n5cccc54)C3)C[C@H]2N1: 5.59
2) O=C1COC2CCN(C(=O)N3C[C@@H]4[C@@H](COC5=C6C=CC=[N+]6[B-](F)(F)n6cccc65)[C@@H]4C3)CC2N1 (some centres unmarked): 6.30
